# EXPERIMENT NOTES: Acute toxicity in Kunming mouse assessed as mortality at 250 mg/kg, ip single dose
# Type: organism-based
# CONDITION SET: in vivo, read-out: Activity
TEST READOUT: mortality (%)
Write the answer as a number in %, unit excluded.

Inquiry: Give the reported mortality for this compound. `Cc1ccc(S(=O)(=O)N2C(=O)COC23C=CC(=O)C=C3)cc1`
Reply text: 60
